Provenance of the data: ChEMBL document CHEMBL4325850

Experiment: Inhibition of ADP-induced platelet aggregation in human platelet-rich plasma at 0.1 mM preincubated for 5 mins followed by ADP-stimulation and measured within 5 mins by Born's turbidimetric analysis relative to control
Conditions: read-out: INH
In this scheme, each record receives a class according to its inhibition at 100 µM; the ranges are bucket A (below 4%), bucket B (4% to below 30%), bucket C (30% or more)

Before answering, review these 3 worked examples.
>  <structure-string>
O=C(CCCO[N+](=O)[O-])N[C@@H](CC(=O)N1CCn2c(nnc2C(F)(F)F)C1)Cc1cc(F)c(F)cc1F

>  <label-value>
bucket B

$$$$
>  <structure-string>
N[C@@H](CC(=O)N1CCn2c(nnc2C(F)(F)F)C1)Cc1cc(F)c(F)cc1F

>  <label-value>
bucket B

$$$$
>  <structure-string>
O=C(CCCCCO[N+](=O)[O-])N[C@@H](CC(=O)N1CCn2c(nnc2C(F)(F)F)C1)Cc1cc(F)c(F)cc1F

>  <label-value>
bucket C

$$$$

stdin: For the record O=C(CCCO)N[C@@H](CC(=O)N1CCn2c(nnc2C(F)(F)F)C1)Cc1cc(F)c(F)cc1F , report the class its inhibition at 100 µM corresponds to.
stdout: bucket A

stdin: For the record O=C(CO)N[C@@H](CC(=O)N1CCn2c(nnc2C(F)(F)F)C1)Cc1cc(F)c(F)cc1F , report the class its inhibition at 100 µM corresponds to.
stdout: bucket A

stdin: For the record CC(=O)Oc1ccccc1C(=O)O , report the class its inhibition at 100 µM corresponds to.
stdout: bucket B

stdin: For the record O=C(CO[N+](=O)[O-])N[C@@H](CC(=O)N1CCn2c(nnc2C(F)(F)F)C1)Cc1cc(F)c(F)cc1F , report the class its inhibition at 100 µM corresponds to.
stdout: bucket B

stdin: For the record O=C(CCCCO[N+](=O)[O-])N[C@@H](CC(=O)N1CCn2c(nnc2C(F)(F)F)C1)Cc1cc(F)c(F)cc1F , report the class its inhibition at 100 µM corresponds to.
stdout: bucket C

stdin: For the record O=C(CCCCCO)N[C@@H](CC(=O)N1CCn2c(nnc2C(F)(F)F)C1)Cc1cc(F)c(F)cc1F , report the class its inhibition at 100 µM corresponds to.
stdout: bucket A

stdin: For the record O=C(CCCCO)N[C@@H](CC(=O)N1CCn2c(nnc2C(F)(F)F)C1)Cc1cc(F)c(F)cc1F , report the class its inhibition at 100 µM corresponds to.
stdout: bucket A
